Measured values drawn from ChEMBL document CHEMBL1208782 for this set.

test: Clearance in db/db mouse at 1 mg/kg, iv; assay type: ADME, organism-based; set-up: dose 1 mg/kg, route intravenous; conditions: in vivo
Give clearance for every item shown.
Only the number, expressed in mL/min/kg, is required.

stdin: Hello, please tell me recorded clearance for this one: `CN(Cc1ccc(C(=O)NCCS(=O)(=O)O)cc1)c1ccc(OCc2c(-c3c(Cl)cccc3Cl)noc2C2CC2)nc1C(F)(F)F`
stdout: 190

stdin: Give the reported value of clearance for this record: `CN(Cc1ccc(C(=O)O)cc1)c1ccc(OCc2c(-c3c(Cl)cccc3Cl)noc2C2CC2)nc1C(F)(F)F`
stdout: 11.9

stdin: Retrieve clearance measured for `CC(C)c1onc(-c2c(Cl)cccc2Cl)c1COc1ccc(N(C)Cc2ccc(C(=O)O)cc2)c(C(F)(F)F)n1` and print it.
stdout: 16.8
